These measurements were taken from PubChem BioAssay (NCI).

System: MDA-MB-468 breast
PROTOCOL DESCRIPTION: NCI-60 one-dose screen, 48 h (100 = growth as untreated, 0 = no growth, -100 = all killed)
CONDITION INFO: 10 µM unless noted
Compounds without any hit were thinned out: in the full panel of roughly 83,000, 20% have a hit.
Please note: TRUE applies when growth is 80% or greater, and FALSE applies otherwise.

Completed entries (count: 3):
MOLECULE	ASSIGNED CLASS
NC(=S)N1N=C(c2ccc(Cl)cc2)CC1c1cc2ccccc2[nH]c1=O (centres undefined)	TRUE
N#CCCN=Nc1c(O)[nH]c2ccc([N+](=O)[O-])cc12	TRUE
CC[C@@H]1OC(=O)[C@H](C)[C@@H](O[C@H]2C[C@@](C)(OC)[C@@H](O)[C@H](C)O2)[C@H](C)[C@@H](O[C@@H]2O[C@H](C)C[C@H](N(C)C)[C@H]2O)[C@](C)(O)C[C@@H](C)[C@@H]2N[C@@H](COCCOC)O[C@H]([C@H]2C)[C@]1(C)O	TRUE

Incoming: Hi team, for "CN1CCN(C(=O)[C@]23CCC(C)(C)C[C@H]2C2=CC[C@@H]4[C@@]5(C)C/C(=C/c6cccnc6)C(=O)C(C)(C)[C@@H]5CC[C@@]4(C)[C@]2(C)CC3)CC1" , is the recorded growth at or above 80%?
Outgoing: FALSE

Incoming: Hi team, for "Cc1ccc([N+](=O)[O-])c(C)n1" , is the recorded growth at or above 80%?
Outgoing: TRUE

Incoming: Hi team, for COc1ccc(C(O)c2cc3c(N)c(C(=O)Nc4ccccc4)sc3nc2C)cc1 (centres undefined) , is the recorded growth at or above 80%?
Outgoing: FALSE

Incoming: Hi team, for CC1=NN(c2ccccc2)C(=O)C1C(=O)c1ccccc1 (centres undefined) , is the recorded growth at or above 80%?
Outgoing: TRUE

Incoming: Hi team, for "Cc1ccc(-c2csc(NC(=O)CSc3nc(-c4ccccc4)cc(=O)[nH]3)n2)cc1" , is the recorded growth at or above 80%?
Outgoing: TRUE

Incoming: Hi team, for "CC(=O)c1ccc(NC(=O)CSc2nnc(-c3cc(-c4ccc(C)cc4)nc4ccccc34)o2)cc1" , is the recorded growth at or above 80%?
Outgoing: TRUE

Incoming: Hi team, for "ClC(Cl)c1nc(-c2ccco2)n2nc(-c3ccccc3)cc2n1" , is the recorded growth at or above 80%?
Outgoing: FALSE

Incoming: Hi team, for "CC(=O)OCC(COC(C)=O)(COC(C)=O)COC(C)=O" , is the recorded growth at or above 80%?
Outgoing: TRUE

Incoming: Hi team, for "C[C@]12C=CC(=O)C=C1[C@@H](F)C[C@@H]1[C@@H]2[C@@H](O)C[C@@]2(C)[C@H]1CC[C@]2(O)C(=O)CO" , is the recorded growth at or above 80%?
Outgoing: TRUE
